- targetOrTestSystem: p110β/p85α (Homo sapiens, UniProt P42338)
- Sequence (P42338 whole entry): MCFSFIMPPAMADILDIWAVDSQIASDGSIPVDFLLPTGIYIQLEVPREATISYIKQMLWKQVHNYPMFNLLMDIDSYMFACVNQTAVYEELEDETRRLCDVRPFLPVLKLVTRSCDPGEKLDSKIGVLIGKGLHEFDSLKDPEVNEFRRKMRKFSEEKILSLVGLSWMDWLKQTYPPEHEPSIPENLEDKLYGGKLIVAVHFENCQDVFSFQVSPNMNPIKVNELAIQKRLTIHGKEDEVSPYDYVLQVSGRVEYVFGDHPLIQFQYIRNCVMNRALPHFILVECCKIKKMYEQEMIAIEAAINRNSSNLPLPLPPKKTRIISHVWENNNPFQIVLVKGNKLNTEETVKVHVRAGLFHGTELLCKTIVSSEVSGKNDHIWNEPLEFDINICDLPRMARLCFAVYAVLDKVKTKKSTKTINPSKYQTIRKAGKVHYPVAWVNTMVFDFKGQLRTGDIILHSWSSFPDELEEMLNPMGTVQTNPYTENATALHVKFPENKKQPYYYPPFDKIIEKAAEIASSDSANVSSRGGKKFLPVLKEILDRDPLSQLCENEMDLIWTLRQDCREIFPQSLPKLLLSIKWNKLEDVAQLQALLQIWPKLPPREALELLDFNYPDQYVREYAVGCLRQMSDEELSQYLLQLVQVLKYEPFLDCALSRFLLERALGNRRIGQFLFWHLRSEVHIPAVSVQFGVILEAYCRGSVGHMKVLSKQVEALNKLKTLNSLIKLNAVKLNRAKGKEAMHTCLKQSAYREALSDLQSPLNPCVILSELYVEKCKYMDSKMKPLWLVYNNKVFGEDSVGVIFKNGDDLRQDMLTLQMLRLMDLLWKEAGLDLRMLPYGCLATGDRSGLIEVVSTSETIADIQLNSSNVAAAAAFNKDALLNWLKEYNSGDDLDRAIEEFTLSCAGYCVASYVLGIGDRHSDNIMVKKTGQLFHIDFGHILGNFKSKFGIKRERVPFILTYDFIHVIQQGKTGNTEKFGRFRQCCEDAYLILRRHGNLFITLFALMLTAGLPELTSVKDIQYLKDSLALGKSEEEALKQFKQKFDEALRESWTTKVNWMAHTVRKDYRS
- Sequence (P27986 2-724 partner): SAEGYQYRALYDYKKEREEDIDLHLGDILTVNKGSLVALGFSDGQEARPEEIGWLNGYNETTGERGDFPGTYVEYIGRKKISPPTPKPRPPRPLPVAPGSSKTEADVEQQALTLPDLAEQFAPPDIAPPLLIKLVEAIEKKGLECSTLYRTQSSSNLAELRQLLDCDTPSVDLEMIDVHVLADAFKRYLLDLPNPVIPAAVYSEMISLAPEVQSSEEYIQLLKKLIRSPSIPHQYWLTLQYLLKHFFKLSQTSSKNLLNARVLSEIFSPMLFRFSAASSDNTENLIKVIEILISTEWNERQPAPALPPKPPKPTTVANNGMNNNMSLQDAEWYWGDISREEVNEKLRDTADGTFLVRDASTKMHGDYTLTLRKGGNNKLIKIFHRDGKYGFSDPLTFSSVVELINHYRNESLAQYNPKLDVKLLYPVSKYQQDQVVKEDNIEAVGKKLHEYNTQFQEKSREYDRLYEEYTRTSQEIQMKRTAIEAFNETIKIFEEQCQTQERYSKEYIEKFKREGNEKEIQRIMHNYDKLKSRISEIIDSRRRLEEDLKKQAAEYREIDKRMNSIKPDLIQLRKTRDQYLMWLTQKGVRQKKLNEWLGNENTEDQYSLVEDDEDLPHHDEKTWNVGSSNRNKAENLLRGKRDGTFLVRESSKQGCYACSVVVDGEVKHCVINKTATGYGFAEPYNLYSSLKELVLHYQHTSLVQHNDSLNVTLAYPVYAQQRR
- protocolNotes: Transcreener KINASE Assay, kinase inhibition of p110β/p85α
- condition: read-out: PI3Kβ IC50
Recorded IC50 values for a group of compounds are listed next.
Respond numerically; units are nM and should not be typed.

Example results:
| compound | endpointUnit | IC50 |
| --- | --- | --- |
| N#Cc1c[nH]c2ncnc(N3CC(=O)C[C@H]3c3nn4ccc(Cl)c4c(=O)n3-c3ccccc3)c12 [Compound 380] | nM | 65 |
| O=c1c2c(Cl)ccn2nc([C@@H]2CCCN2c2ncnc3[nH]cnc23)n1C1CCC1 [Compound 374] | nM | 517 |
| C[S@@+]([O-])c1c[nH]c2ncnc(N3CCC[C@H]3c3nn4ccc(Cl)c4c(=O)n3-c3ccccc3)c12 [Compound 383] | nM | 741 |

Next compound, IC50 to be filled in.
Report value only: IC50, p110β/p85α (Homo sapiens, UniProt P42338), CC(Nc1ncnc2[nH]cc(C#N)c12)c1cc2ncc(Cl)n2c(=O)n1-c1ccccc1 (stereo not shown) [Compound 116]
128
